- measurement-protocol: Bioavailability and release of N-0923 from the depot composition per the invention
- Format: in vivo
- recorded-conditions: plasma; depot composition with N-0923; read-out: bioavailability of the pharmaceutical composition per the invention
- Text: The composition according to the invention is particularly preferred for the administration of N-0923 hydrochloride, and especially so in a formulation with crystalline N-0923 hydrochloride. The latter can be produced for instance as described in U.S. Pat. No. 4,564,628.
recorded-metric: bioavailability

Task: // bioavailability lookup, key: `CCCN(CCc1cccs1)[C@H]1CCc2c(O)cccc2C1`
Result: ~70%
